Numbers sourced from PubChem BioAssay (NCI).

# Test system: NCI-H226 lung
# measurement.description: NCI tumour cell line growth inhibition, 48 h; in the data active = GI50 below about 0.43 µM; inactive = the rest
Output constraint: value belongs to active, inactive

These recorded examples may help you get a feel for the data.
* CCN(CC)c1ccc(C(=C2C=CC(=[N+](CC)Cc3cccc(S(=O)(=O)O)c3)C=C2)c2ccc(N(CC)Cc3cccc(S(=O)(=O)O)c3)cc2)cc1 | inactive
* COc1ccc(N2C(C)=C(C#N)C34C(=O)N(c5ccccc5)C(=O)C3=C(O)C=CC24O)cc1 (stereo not given) | inactive
* COC(=O)[C@H](Cc1cn(C)cn1)NC(=O)[C@H](Cc1c[nH]c2ccccc12)NC(=O)Nc1cc(C(F)(F)F)cc(C(F)(F)F)c1 | inactive

**Q:** Status in this test for `CNC(=O)n1ccc2cc(Oc3ccnc(NC(=O)c4ccc(C5CCN(CCO)CC5)cc4)c3)c(OCCOC)cc21` ?
**A:** inactive

**Q:** Status in this test for `O=C1c2ccccc2-c2c1c1ccccc1c(=O)n2CCCNCCCNCCCn1c2c(c3ccccc3c1=O)C(=O)c1ccccc1-2` ?
**A:** active

**Q:** Status in this test for `O=C1OC(=O)C(c2c[nH]c3ccccc23)=C1c1c[nH]c2ccccc12` ?
**A:** inactive

**Q:** Status in this test for `Cc1c(C(=O)/C=C/c2csc3ccccc23)[n+](=O)c2ccccc2n1[O-]` ?
**A:** inactive

**Q:** Status in this test for `C[C@H](Nc1ncnc2nc[nH]c12)c1cc2cccc(Cl)c2c(=O)n1-c1ccccc1` ?
**A:** inactive

**Q:** Status in this test for COC1(C(=O)N[C@@H](C)c2ccc(-n3cc(F)cn3)nc2)CCC(c2nc(C)cc(Nc3cc(C)[nH]n3)n2)CC1 (stereo not given in full) ?
**A:** active

**Q:** Status in this test for C[C@@H](C(=O)Nc1ccc(Cl)cc1)C1CCC(c2ccnc3ccc(F)cc23)CC1 (stereo not given in full) ?
**A:** inactive

* * *

# Test system: OVCAR-5 ovarian
# measurement.description: NCI tumour cell line growth inhibition, 48 h
Listed here are compounds together with their documented GI50.

Examples from the recorded data:
• CCN1C(=O)N(CC)C2C1NN=c1s/c(=C\c3cccnc3)c(=O)n12 (stereo not given) = 1.97 µM
• Nc1cc2cccc[n+]2c2cc(Cl)ccc12 = 25.7 µM
• CNC(=O)c1cncc(/C=C/c2ccccc2C)c1 = > 25 µM
• C=C1C(=O)O[C@H]2[C@H]1CC/C(COC(=O)NCc1ccccc1OC)=C\CC[C@@]1(C)O[C@@H]21 = 2.29 µM
• CCCCCn1c(=N)n(CC(O)COc2cccc(C)c2)c2ccccc21 (stereo not given) = 9.82 µM

**Q:** Respond only with GI50 recorded for `CN1CCN(CCc2cccc(C(=O)c3cnn(-c4ccc(F)cc4)c3N)c2)CC1`
**A:** > 25 µM

**Q:** Respond only with GI50 recorded for `ClCCn1c(CCl)nc2ccc(Cl)cc21`
**A:** 1.21 µM

**Q:** Respond only with GI50 recorded for `N#Cc1cnc2cc(OC[C@H](O)CO)c(NC(=O)CC3CSSC3)cc2c1Nc1ccc(OCc2cccc(F)c2)c(Cl)c1`
**A:** 0.872 µM

**Q:** Respond only with GI50 recorded for `CCN(CC)c1ccc(C(=C2C=CC(=[N+](CC)Cc3cccc(S(=O)(=O)O)c3)C=C2)c2ccc(N(CC)Cc3cccc(S(=O)(=O)O)c3)cc2)cc1`
**A:** 20.8 µM

* * *

# Test system: SF-268 CNS
# measurement.description: NCI tumour cell line growth inhibition, 48 h
Note to self: values exactly at 30 µM are YES. So TGI at or above 30 µM is YES, below is NO.

- Cc1ccc(-c2c(N)[n+]([O-])c3ccccc3[n+]2[O-])cc1: YES
- CC(=O)OC(C)c1cc2c(s1)C(=O)c1sccc1C2=O (stereo not drawn): NO
- CCN(Cc1ccc(F)c(F)c1)c1ccc(CO)c(Cl)c1: YES
- CCCC[C@H](NC(=O)[C@H]1CCCN1C)C(=O)N(C)[C@H](C[C@@H](OC(C)=O)c1nc(C(=O)N[C@@H](Cc2ccccc2)C[C@H](C)C(=O)OCC)cs1)C(C)C: NO
- O=C1/C(=C/c2ccccc2S)N=C(c2ccccc2)N1c1nc2ccc(Sc3ccccc3)cc2[nH]1: YES
- COCOc1ccc(OC)cc1: YES
- CCCCn1c2c(n(CCCC)c1=S)-c1c(n(CCCC)c(=S)n1CCCC)S[Se][Se]S2: YES
- Cc1ccncc1.[O]=[Ge].[O]=[Ge].[O]=[Ge].[O]=[Ge].[O]=[Ge].[O]=[Ge][OH].[O]=[Ge][OH]: YES
- COc1ccc2nc3cc([N+](=O)[O-])ccc3c(NCCCCCN(C)C)c2c1: NO
- O=C(Nc1cccc2cnccc12)c1cc2c(cc1Cl)Sc1nccn1S2(=O)=O: YES

**Q:** Quick check: does `O=CNc1c(Cl)cc2c(c1Cl)Cc1cc([N+](=O)[O-])ccc1-2` have TGI greater than or equal to 30 µM?
**A:** YES

**Q:** Quick check: does C=C(C)CCC(=O)[C@](C)(O)[C@H]1[C@H](O)C[C@@]2(C)[C@@H]3CCc4c(cc(OC5OC(CO)C(O)C(O)C5O)c(O)c4C)C3(C)C(=O)C[C@]12C (stereo partly drawn) have TGI greater than or equal to 30 µM?
**A:** YES

**Q:** Quick check: does `O=C1CCC(=Nc2ccc(Cl)cc2)N1C(=O)COc1ccc(OCC(=O)N2C(=O)CSC2=Nc2ccc(Cl)cc2)cc1` have TGI greater than or equal to 30 µM?
**A:** YES

**Q:** Quick check: does `C=CCc1c2c(c(OC)c3ccoc13)C(=O)/C(=C/c1ccccc1OC)O2` have TGI greater than or equal to 30 µM?
**A:** YES

**Q:** Quick check: does `COc1c(CCC[P+](c2ccccc2)(c2ccccc2)c2ccccc2)cc2c(c1OC)OCO2` have TGI greater than or equal to 30 µM?
**A:** NO

**Q:** Quick check: does `N#Cc1cnc2cc(OC[C@H](O)CO)c(NC(=O)CC3CSSC3)cc2c1Nc1ccc(OCc2cccc(F)c2)c(Cl)c1` have TGI greater than or equal to 30 µM?
**A:** NO

* * *

Listed here are compounds together with their documented TGI.
# System: SNB-78 CNS
# measurement.description: NCI tumour cell line growth inhibition, 48 h

- CCC12C[N+]3([O-])CCc4c([nH]c5ccccc45)C(C(=O)OC)(c4cc5c(cc4OC)N(C)C4C(O)(C(=O)OC)C(OC(C)=O)C6(CC)C=CCN7CCC54C76)CC(C3)C1O2 (configuration not stated): 4.65 µM
- Cc1ccncc1.[O]=[Ge].[O]=[Ge].[O]=[Ge].[O]=[Ge].[O]=[Ge].[O]=[Ge][OH].[O]=[Ge][OH]: > 100 µM
- COc1ccccc1NC(=O)C1=C(C)NC(C)=C(C(=O)Nc2ccccc2OC)C1c1ccccc1F: > 100 µM

**Q:** Respond only with TGI recorded for `COCCN1C2=CCCCC2=Nc2c1nc(N)[nH]c2=O`
**A:** > 100 µM

**Q:** Respond only with TGI recorded for C=C1C(O)C2(O)OCC34C(CC5C(C)=CC(=O)C(O)C5(C)C23)OC(=O)C(OC(=O)C/C=C(\C)CCCCC)C14 (configuration not stated)
**A:** 0.0373 µM

**Q:** Respond only with TGI recorded for Cc1cccc(NC(=O)CC(=O)N2N=C(N(CCC#N)c3ccc(Cl)cc3)CC2c2ccccc2)c1 (configuration not stated)
**A:** > 100 µM

**Q:** Respond only with TGI recorded for `C=C1C(=O)O[C@H]2[C@H]1[C@H](OC(=O)/C(C)=C\C)CC(=C)[C@@H]1[C@H](O)[C@H]3O[C@@]3(C)[C@@]12O`
**A:** > 100 µM

**Q:** Respond only with TGI recorded for `COc1cc(/C=C2\C(=O)N(C(=O)Cc3ccccc3)N=C2C)ccc1O`
**A:** > 100 µM

**Q:** Respond only with TGI recorded for `COc1ccc(-c2cc(=O)c3cc4c(cc3[nH]2)OCO4)c(OC)c1OC`
**A:** > 100 µM

**Q:** Respond only with TGI recorded for `CC1=NCCc2c1[nH]c1cc(O)ccc21`
**A:** > 100 µM

**Q:** Respond only with TGI recorded for `O=C(CP(=O)(O)O)c1cccs1`
**A:** > 100 µM

**Q:** Respond only with TGI recorded for COC(=O)CCC1CCc2c(OC)ccc(O)c2C1=O (configuration not stated)
**A:** > 100 µM

**Q:** Respond only with TGI recorded for NC(=O)C(=O)N/N=C1/c2ccccc2CC1C1(O)C(=O)Nc2c(Cl)cc(Cl)cc21 (configuration not stated)
**A:** > 100 µM

**Q:** Respond only with TGI recorded for `O=C(O)c1ccc([Se][Se]c2ccc(C(=O)O)cc2)cc1`
**A:** 52.4 µM

**Q:** Respond only with TGI recorded for `Cc1ccc(-c2c(N)[n+]([O-])c3ccccc3[n+]2[O-])cc1`
**A:** 37.1 µM

**Q:** Respond only with TGI recorded for CC1CCCCc2nc3c(c(=O)n21)CCCC3 (configuration not stated)
**A:** > 100 µM

**Q:** Respond only with TGI recorded for COc1cccc(NC(=O)CC(=O)N2N=C(N(CCC#N)c3ccc(Cl)cc3)CC2c2ccccc2)c1 (configuration not stated)
**A:** > 100 µM
